Tested on: A673
Test Method Notes: Cytotoxicity, resazurin fluorescence, A673
Type: cell-based
Setup Conditions: Homo sapiens, A673; Table 6; 72 hr; EWS cells

[
  {
    "Compound": "CO[C@H](C(=NOCCNC(=O)c1cc2cc(F)ccc2[nH]1)[C@@H](O)[C@@H](C)O)[C@@H]1Cc2cc3cc(O[C@H]4C[C@@H](O[C@H]5C[C@@H](O)[C@H](O)[C@@H](C)O5)[C@H](O)[C@@H](C)O4)c(C)c(O)c3c(O)c2C(=O)[C@H]1O[C@H]1C[C@@H](O[C@H]2C[C@@H](O[C@H]3C[C@](C)(O)[C@H](O)[C@@H](C)O3)[C@@H](O)[C@@H](C)O2)[C@H](O)[C@@H](C)O1 [YL-B168]",
    "Subject Of Test": "A673",
    "GI50 (nM)": 34.5
  },
  {
    "Compound": "CO[C@H](C(=NOCCNC(=O)c1cc2cc(OC(F)(F)F)ccc2[nH]1)[C@@H](O)[C@@H](C)O)[C@@H]1Cc2cc3cc(O[C@H]4C[C@@H](O[C@H]5C[C@@H](O)[C@H](O)[C@@H](C)O5)[C@H](O)[C@@H](C)O4)c(C)c(O)c3c(O)c2C(=O)[C@H]1O[C@H]1C[C@@H](O[C@H]2C[C@@H](O[C@H]3C[C@](C)(O)[C@H](O)[C@@H](C)O3)[C@@H](O)[C@@H](C)O2)[C@H](O)[C@@H](C)O1 [YL-B171]",
    "Subject Of Test": "A673",
    "GI50 (nM)": 51
  }
]

====

Test Method Notes: log P
Assay type: physicochemical
Setup Conditions: Table 2
Each item that follows carries a reported log P.
Recorded Endpoint: log P

[
  {
    "Compound": "COC(C(=NOCC(Cc1c[nH]c2ccccc12)NC(=O)c1ccc2scnc2c1)C(O)C(C)O)C1Cc2cc3cc(OC4CC(OC5CC(O)C(O)C(C)O5)C(O)C(C)O4)c(C)c(O)c3c(O)c2C(=O)C1OC1CC(OC2CC(OC3CC(C)(O)C(O)C(C)O3)C(O)C(C)O2)C(O)C(C)O1 (stereo not shown)",
    "Recorded Endpoint": "log P",
    "Numeric Result": 3.26
  },
  {
    "Compound": "CO[C@H](C(=NOCCNC(=O)c1[nH]c2ccc(C(F)(F)F)cc2c1-c1ccc(Cl)cc1)[C@@H](O)[C@@H](C)O)[C@@H]1Cc2cc3cc(O[C@H]4C[C@@H](O[C@H]5C[C@@H](O)[C@H](O)[C@@H](C)O5)[C@H](O)[C@@H](C)O4)c(C)c(O)c3c(O)c2C(=O)[C@H]1O[C@H]1C[C@@H](O[C@H]2C[C@@H](O[C@H]3C[C@](C)(O)[C@H](O)[C@@H](C)O3)[C@@H](O)[C@@H](C)O2)[C@H](O)[C@@H](C)O1",
    "Recorded Endpoint": "log P",
    "Numeric Result": 4.56
  },
  {
    "Compound": "COC(C(=NOCCNC(=O)c1c(-c2ccc(Cl)cc2)c2cc(Cl)ccc2n1CC(C)C)C(O)C(C)O)C1Cc2cc3cc(OC4CC(OC5CC(O)C(O)C(C)O5)C(O)C(C)O4)c(C)c(O)c3c(O)c2C(=O)C1OC1CC(OC2CC(OC3CC(C)(O)C(O)C(C)O3)C(O)C(C)O2)C(O)C(C)O1 (stereo not shown)",
    "Recorded Endpoint": "log P",
    "Numeric Result": 6.21
  },
  {
    "Compound": "CO[C@H](C(=NOCC(=O)N[C@@H](Cc1c[nH]c2ccccc12)C(=O)Nc1ccc2scnc2c1)[C@@H](O)[C@@H](C)O)[C@@H]1Cc2cc3cc(O[C@H]4C[C@@H](O[C@H]5C[C@@H](O)[C@H](O)[C@@H](C)O5)[C@H](O)[C@@H](C)O4)c(C)c(O)c3c(O)c2C(=O)[C@H]1O[C@H]1C[C@@H](O[C@H]2C[C@@H](O[C@H]3C[C@](C)(O)[C@H](O)[C@@H](C)O3)[C@@H](O)[C@@H](C)O2)[C@H](O)[C@@H](C)O1",
    "Recorded Endpoint": "log P",
    "Numeric Result": 2.56
  }
]

====

Tested on: TC32 cells
Test Method Notes: Potency IC50 in TC32 cells and selectivity
Assay type: cell-based
Setup Conditions: Homo sapiens, TC-32, Table 4, read-out: IC50 TC32
pIC50: −log10 of the molar value.
Recorded Endpoint: pIC50

[
  {
    "Compound": "COC(C(=NOCCNC(=O)c1[nH]c2ccc(Cl)cc2c1-c1ccccc1)C(O)C(C)O)C1Cc2cc3cc(OC4CC(OC5CC(O)C(O)C(C)O5)C(O)C(C)O4)c(C)c(O)c3c(O)c2C(=O)C1OC1CC(OC2CC(OC3CC(C)(O)C(O)C(C)O3)C(O)C(C)O2)C(O)C(C)O1 (stereo not shown)",
    "Numeric Result": 7.86
  },
  {
    "Compound": "CO[C@H](C(=NOCCNC(=O)c1cc2cc(Cl)ccc2[nH]1)[C@@H](O)[C@@H](C)O)[C@@H]1Cc2cc3cc(O[C@H]4C[C@@H](O[C@H]5C[C@@H](O)[C@H](O)[C@@H](C)O5)[C@H](O)[C@@H](C)O4)c(C)c(O)c3c(O)c2C(=O)[C@H]1O[C@H]1C[C@@H](O[C@H]2C[C@@H](O[C@H]3C[C@](C)(O)[C@H](O)[C@@H](C)O3)[C@@H](O)[C@@H](C)O2)[C@H](O)[C@@H](C)O1",
    "Numeric Result": 8.08
  },
  {
    "Compound": "CO[C@H](C(=NOCCNC(=O)c1[nH]c2ccc(Cl)cc2c1-c1ccc(Cl)cc1)[C@@H](O)[C@@H](C)O)[C@@H]1Cc2cc3cc(O[C@H]4C[C@@H](O[C@H]5C[C@@H](O)[C@H](O)[C@@H](C)O5)[C@H](O)[C@@H](C)O4)c(C)c(O)c3c(O)c2C(=O)[C@H]1O[C@H]1C[C@@H](O[C@H]2C[C@@H](O[C@H]3C[C@](C)(O)[C@H](O)[C@@H](C)O3)[C@@H](O)[C@@H](C)O2)[C@H](O)[C@@H](C)O1",
    "Numeric Result": 7.69
  },
  {
    "Compound": "COC(C(=NOCCNC(=O)c1[nH]c2ccc(Cl)cc2c1-c1cccs1)C(O)C(C)O)C1Cc2cc3cc(OC4CC(OC5CC(O)C(O)C(C)O5)C(O)C(C)O4)c(C)c(O)c3c(O)c2C(=O)C1OC1CC(OC2CC(OC3CC(C)(O)C(O)C(C)O3)C(O)C(C)O2)C(O)C(C)O1 (stereo not shown)",
    "Numeric Result": 7.76
  }
]

====

Test Method Notes: Clearance (CL) / pharmacokinetics
Assay type: in vivo, mice
Setup Conditions: mouse, plasma, iv; Table 2
Recorded Endpoint: clearance (mL/min/kg)

[
  {
    "Compound": "CO[C@H](C(=NOCCNC(=O)c1cc2cc(F)ccc2[nH]1)[C@@H](O)[C@@H](C)O)[C@@H]1Cc2cc3cc(O[C@H]4C[C@@H](O[C@H]5C[C@@H](O)[C@H](O)[C@@H](C)O5)[C@H](O)[C@@H](C)O4)c(C)c(O)c3c(O)c2C(=O)[C@H]1O[C@H]1C[C@@H](O[C@H]2C[C@@H](O[C@H]3C[C@](C)(O)[C@H](O)[C@@H](C)O3)[C@@H](O)[C@@H](C)O2)[C@H](O)[C@@H](C)O1",
    "Numeric Result": 0.717
  },
  {
    "Compound": "CO[C@H](C(=NOCCNC(=O)c1cc2cc(Cl)ccc2[nH]1)[C@@H](O)[C@@H](C)O)[C@@H]1Cc2cc3cc(O[C@H]4C[C@@H](O[C@H]5C[C@@H](O)[C@H](O)[C@@H](C)O5)[C@H](O)[C@@H](C)O4)c(C)c(O)c3c(O)c2C(=O)[C@H]1O[C@H]1C[C@@H](O[C@H]2C[C@@H](O[C@H]3C[C@](C)(O)[C@H](O)[C@@H](C)O3)[C@@H](O)[C@@H](C)O2)[C@H](O)[C@@H](C)O1",
    "Numeric Result": 0.733
  },
  {
    "Compound": "COC(C(=NOCCNC(=O)c1[nH]c2ccc(Cl)cc2c1-c1ccnn1C)C(O)C(C)O)C1Cc2cc3cc(OC4CC(OC5CC(O)C(O)C(C)O5)C(O)C(C)O4)c(C)c(O)c3c(O)c2C(=O)C1OC1CC(OC2CC(OC3CC(C)(O)C(O)C(C)O3)C(O)C(C)O2)C(O)C(C)O1 (stereo not drawn)",
    "Numeric Result": 0.517
  },
  {
    "Compound": "COC(C(=NOCCNC(=O)c1cc2cc(Br)ccc2[nH]1)C(O)C(C)O)C1Cc2cc3cc(OC4CC(OC5CC(O)C(O)C(C)O5)C(O)C(C)O4)c(C)c(O)c3c(O)c2C(=O)C1OC1CC(OC2CC(OC3CC(C)(O)C(O)C(C)O3)C(O)C(C)O2)C(O)C(C)O1 (stereo not drawn)",
    "Numeric Result": 0.467
  },
  {
    "Compound": "CO[C@H](C(=NOCCNC(=O)c1[nH]c2ccc(Cl)cc2c1-c1ccc(Cl)cc1)[C@@H](O)[C@@H](C)O)[C@@H]1Cc2cc3cc(O[C@H]4C[C@@H](O[C@H]5C[C@@H](O)[C@H](O)[C@@H](C)O5)[C@H](O)[C@@H](C)O4)c(C)c(O)c3c(O)c2C(=O)[C@H]1O[C@H]1C[C@@H](O[C@H]2C[C@@H](O[C@H]3C[C@](C)(O)[C@H](O)[C@@H](C)O3)[C@@H](O)[C@@H](C)O2)[C@H](O)[C@@H](C)O1",
    "Numeric Result": 0.383
  },
  {
    "Compound": "COC(C(=NOCCNC(=O)c1[nH]c2ccc(Cl)cc2c1-c1ccccc1)C(O)C(C)O)C1Cc2cc3cc(OC4CC(OC5CC(O)C(O)C(C)O5)C(O)C(C)O4)c(C)c(O)c3c(O)c2C(=O)C1OC1CC(OC2CC(OC3CC(C)(O)C(O)C(C)O3)C(O)C(C)O2)C(O)C(C)O1 (stereo not drawn)",
    "Numeric Result": 0.35
  }
]
